# TARGET: APOL1 (Homo sapiens, UniProt O14791)
# Sequence (O14791 whole entry S342G/I384M, form open): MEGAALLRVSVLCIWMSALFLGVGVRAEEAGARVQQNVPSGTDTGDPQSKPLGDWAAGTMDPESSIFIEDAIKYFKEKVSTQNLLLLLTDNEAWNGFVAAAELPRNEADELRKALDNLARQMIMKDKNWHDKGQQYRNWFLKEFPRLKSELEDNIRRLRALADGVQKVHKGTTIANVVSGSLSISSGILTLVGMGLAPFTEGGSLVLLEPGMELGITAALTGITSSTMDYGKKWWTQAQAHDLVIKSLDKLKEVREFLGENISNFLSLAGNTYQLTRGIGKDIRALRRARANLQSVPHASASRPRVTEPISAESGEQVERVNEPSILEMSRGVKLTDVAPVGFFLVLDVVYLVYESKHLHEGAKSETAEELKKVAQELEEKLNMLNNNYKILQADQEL
# ASSAY INFO: Multi-Tox Assay (MultiTox-Fluor Multiplex Cytotoxicity Assay in tet-inducible APOL1 T-REx-HEK293 cells; Table 46 does not say which APOL1 variant G0/G1/G2)
# SETUP CONDITIONS: IP50 = IC50 for cell proliferation, APOL1 variant not given
pIC50: −log10 of the molar value.
EXPERIMENTAL ENDPOINT: pIC50

Example cases with answers are listed next.
C[C@H]1C[C@@]2(C[C@@H](c3cn(CCCS(C)(=O)=O)nn3)N1)OCC(F)(F)c1cc(Cl)sc12 = > 7.30
CC1CC2(CC(CO)N1)OCCc1cc(Cl)sc12 (mixture of isomers) = < 6.30
COc1cc(F)cc(Cn2cc([C@@H]3C[C@]4(C[C@H](C)N3)OC[C@@H](O)c3cc(Cl)sc34)nn2)c1 = > 7.30
COc1cc(O)cc([C@@H]2C[C@]3(C[C@H](C)N2)OCCc2cc(Cl)sc23)c1 (racemic) = 6.30 to 7.30
Cc1cc([C@@H]2C[C@]3(C[C@H](C)N2)OCCc2cc(Cl)sc23)nn1C (racemic) = > 7.30
C[C@H]1C[C@@]2(C[C@@H](c3ccc(S(N)(=O)=O)cc3F)N1)OCCc1cc(Cl)sc12 (racemic) = > 7.30
C[C@H]1C[C@@]2(C[C@@H](c3ccc4oc(=O)n(C)c4c3)N1)OCCc1cc(Cl)sc12 (racemic) = > 7.30
Cc1cccc(OCC(O)Cn2cc([C@@H]3C[C@]4(C[C@H](C)N3)OC[C@@H](O)c3cc(Cl)sc34)nn2)c1 (stereo partly drawn) = > 7.30

# lookup: pIC50 of C[C@H]1C[C@@]2(C[C@@H](c3ccc4c(c3)n(C)c(=O)n4C)N1)OCCc1cc(Cl)sc12 (racemic)
> 7.30

Could you tell me which pIC50 is on file for C[C@H]1C[C@@]2(C[C@@H](c3cn(C)nn3)N1)OCC(F)(F)c1cc(Cl)sc12 ?
> 7.30

// pIC50 lookup, key: C[C@H]1C[C@@]2(C[C@@H](c3cn(C[C@@H](O)CO)nn3)N1)OC[C@@H](O)c1cc(Cl)sc12
6.30 to 7.30

I'd like to know its pIC50. The compound in question is C[C@H]1C[C@@]2(C[C@@H](c3cn(Cc4ccc(O)cc4)nn3)N1)OC[C@@H](O)c1cc(Cl)sc12
6.30 to 7.30

Please give the measured pIC50 for this compound: C[C@H]1C[C@@]2(C[C@@H](c3cn(Cc4cnc5cnccn45)nn3)N1)OC[C@@H](O)c1cc(Cl)sc12
6.30 to 7.30

For the compound shown here, CC1CC2(CC(c3cncnc3)N1)OCCc1cc(Cl)sc12 (stereo not drawn) , give the reported pIC50.
> 7.30

I'd like to know its pIC50. The compound in question is C[C@H]1C[C@@]2(C[C@@H](c3cn(CCC(C)(C)O)nn3)N1)OC[C@@H](O)c1cc(Cl)sc12
> 7.30
